measurement_target: recombinant human GluN1/GluN2A receptor (Homo sapiens, UniProt Q05586+Q12879)
Construct: expressed in transfected cells; host or cells: HEK293, tetracycline-inducible expression
Sequence (Q12879 23-1464, other chains not shown): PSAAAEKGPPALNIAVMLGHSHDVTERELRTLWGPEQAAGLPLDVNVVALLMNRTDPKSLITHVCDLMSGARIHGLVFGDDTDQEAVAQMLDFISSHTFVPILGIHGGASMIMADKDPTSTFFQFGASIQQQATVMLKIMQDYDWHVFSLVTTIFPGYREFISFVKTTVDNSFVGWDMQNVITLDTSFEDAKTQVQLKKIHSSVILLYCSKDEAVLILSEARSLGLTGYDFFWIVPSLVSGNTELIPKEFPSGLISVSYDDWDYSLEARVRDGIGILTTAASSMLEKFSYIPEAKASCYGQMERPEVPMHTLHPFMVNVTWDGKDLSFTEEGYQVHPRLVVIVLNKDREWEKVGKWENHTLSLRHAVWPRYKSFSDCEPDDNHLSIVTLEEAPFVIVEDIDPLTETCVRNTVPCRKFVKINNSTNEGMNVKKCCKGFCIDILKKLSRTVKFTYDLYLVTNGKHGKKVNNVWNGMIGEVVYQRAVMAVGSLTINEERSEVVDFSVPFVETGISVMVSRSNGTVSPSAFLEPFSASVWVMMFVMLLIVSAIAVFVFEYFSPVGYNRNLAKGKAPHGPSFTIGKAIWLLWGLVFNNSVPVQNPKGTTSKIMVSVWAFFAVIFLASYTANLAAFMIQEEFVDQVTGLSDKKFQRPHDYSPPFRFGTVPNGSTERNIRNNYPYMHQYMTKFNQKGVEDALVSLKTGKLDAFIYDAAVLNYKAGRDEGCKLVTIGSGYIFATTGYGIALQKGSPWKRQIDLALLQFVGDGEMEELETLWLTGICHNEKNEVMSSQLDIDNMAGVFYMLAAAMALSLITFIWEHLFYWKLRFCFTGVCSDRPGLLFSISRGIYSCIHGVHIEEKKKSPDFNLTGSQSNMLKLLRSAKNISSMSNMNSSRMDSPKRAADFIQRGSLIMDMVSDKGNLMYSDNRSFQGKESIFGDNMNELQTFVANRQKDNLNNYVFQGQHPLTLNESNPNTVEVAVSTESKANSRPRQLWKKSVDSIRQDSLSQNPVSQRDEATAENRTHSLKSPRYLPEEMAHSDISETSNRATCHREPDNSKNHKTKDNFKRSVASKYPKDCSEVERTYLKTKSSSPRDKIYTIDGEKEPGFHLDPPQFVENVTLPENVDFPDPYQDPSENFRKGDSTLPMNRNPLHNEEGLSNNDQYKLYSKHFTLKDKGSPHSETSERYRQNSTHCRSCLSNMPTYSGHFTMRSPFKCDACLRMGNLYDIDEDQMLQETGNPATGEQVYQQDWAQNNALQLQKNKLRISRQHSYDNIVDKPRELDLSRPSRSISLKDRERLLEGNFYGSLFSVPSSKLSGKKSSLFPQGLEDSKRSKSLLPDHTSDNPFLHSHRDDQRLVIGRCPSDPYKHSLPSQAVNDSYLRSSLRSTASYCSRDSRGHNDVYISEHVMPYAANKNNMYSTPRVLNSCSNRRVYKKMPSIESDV
measurement_description: Whole-cell patch clamp of mammalian cells (Syncropatch 384i), NMDA modulation
Assay type: cell-based
condition_info: Table E-2; HEK293 cells, human GluN1/GluN2A; glutamate 1 μM / glycine 100 μM; -80 mV; peak amplitude increase
observed_property: Emax

given_smiles: CC[C@]1(O)CC[C@]2(C)C3=CC[C@]4(C)[C@@H]([C@H](C)CCCC(C)(C)O)CC[C@H]4[C@@H]3CC[C@H]2C1
measurement_target: recombinant human GluN1/GluN2A receptor (Homo sapiens, UniProt Q05586+Q12879)
Emax: < 100%

Now consider a different compound.
For CC[C@]1(O)CC[C@]2(C)C3=CC[C@]4(C)[C@@H]([C@H](C)CC[C@](C)(O)C(F)(F)F)CC[C@H]4[C@@H]3CC[C@H]2C1 , write its Emax.
> 200%
